system: OVCAR-8 ovarian; assay: NCI-60 one-dose screen, 48 h; settings: 10 µM unless noted
Compounds without any hit were thinned out: in the full panel of roughly 83,000, 20% have a hit. Calls of active or inactive are those of the source. Rule for the calls: active = growth percent below 10; inactive = the rest.
Valid outcomes are listed here; reply with one: True for active, False for inactive

Incoming: Record request — test call for O=C(Nc1cc(F)cc2cccnc12)c1cnc(N2CCOCC2)cn1
Outgoing: False

---

tested on: MALME-3M melanoma; assay: NCI-60 one-dose screen, 48 h; settings: 10 µM unless noted
The panel holds about 83,000 compounds, 20% with a hit somewhere; the sample as a whole holds those more often. Active and inactive are the calls of the source. How the source made its calls: active means growth percent below 10; inactive means the rest.
Valid outcomes are listed here; reply with one: yes = active, no = inactive

Use these answered entries as a reference point.
>>> assigned_label("COc1cc2cc(Oc3ccc(NC(=O)c4cccc(C(F)(F)F)c4)cc3)c(C)nc2cc1OCCN(C)C")
"yes"
>>> assigned_label("NCCN1CCN(c2nc(-c3ccccc3)nc3nc(-c4ccccc4)oc23)CC1")
"yes"
>>> assigned_label("CS(=O)(=O)c1nccc(-c2c(-c3ccc(F)c(OCc4ccccc4)c3)nc3sccn23)n1")
"no"

Incoming: Record request — test call for COc1ccc(Cn2cc3c(c2-c2cc(OC)c(OC)c(OC)c2)CCCc2cnoc2-3)cc1
Outgoing: no

Incoming: Record request — test call for COc1ccc([C@H]2c3[nH]c4ccccc4c3C[C@@H]3C(=O)N(C4CCN(Cc5ccccc5)CC4)CC(=O)N23)c(OC)c1
Outgoing: no

Incoming: Record request — test call for COc1cc(-c2noc(C[C@@H](NC(=O)OCc3ccccc3)C(C)C)n2)cc(OC)c1OC
Outgoing: no

Incoming: Record request — test call for CCCC(=O)NC(c1cccnc1)c1ccc2c(C)ccnc2c1O (stereo unspecified)
Outgoing: no

Incoming: Record request — test call for O=C(Cn1cc(CN2C(=O)c3ccc([N+](=O)[O-])cc3C2=O)nn1)Nc1ccc(F)cc1Cl
Outgoing: no

Incoming: Record request — test call for CCc1ccc(NC(=O)N[C@@H](Cc2cc(F)cc(F)c2)C(=O)N[C@@H]2C(=O)N3CCC[C@H]3C(=O)N3CCO[C@H](C)[C@H]3C(=O)N[C@@H](CO)C(=O)N3C[C@H](C)C[C@H]3C(=O)O[C@H]2C)c(F)c1
Outgoing: no

Incoming: Record request — test call for C#CCOc1ccc(/C=N/Nc2nc(-c3cc4cc(Br)cc(Br)c4oc3=O)cs2)cc1
Outgoing: no

Incoming: Record request — test call for CNC(=O)c1cc(Oc2ccc3nc(NC(=O)c4ccc(CN5CCCN(C)CC5)c(C(F)(F)F)c4)sc3c2)ccn1
Outgoing: yes

Incoming: Record request — test call for CN(C)C(=O)c1ccccc1-n1cnc2ccccc2c1=O
Outgoing: no

Incoming: Record request — test call for O=C1C[C@@H](c2ccccc2)Oc2c(Cc3ccccc3O)c(O)c(Cc3cc(Cc4cc(Cc5ccccc5O)ccc4O)ccc3O)c(O)c21
Outgoing: no

Incoming: Record request — test call for C#C[C@]1(O)CC[C@H]2[C@@H]3CC=C4c5sc(-c6ccc(OC)cc6)nc5CC[C@]4(C)[C@H]3CC[C@@]21C
Outgoing: no

Incoming: Record request — test call for C[C@@H]1C[C@H]2C(=O)OCC(NC(=O)[C@H](Cc3cc(F)cc(F)c3)NC(=O)Nc3ccc(Cl)cc3F)C(=O)N3CCC[C@H]3C(=O)N3CCCC[C@H]3C(=O)N[C@@H](C)C(=O)N2C1 (stereo partly specified)
Outgoing: no

Incoming: Record request — test call for c1cncc(-c2cn3nc(-c4c[nH]c5ccccc45)sc3n2)c1
Outgoing: no

---

system: NCI-H322M lung; experiment: NCI-60 one-dose screen, 48 h (100 = growth as untreated, 0 = no growth, -100 = all killed); details: 10 µM unless noted
The panel holds about 83,000 compounds, 20% with a hit somewhere; the sample as a whole holds those more often.
Binary classification by growth, with 90% as an inclusive lower bound for T; all other cases are F.

>>> assigned_label("COc1ccc(-c2nnc(SCc3ccc(O)c4ncccc34)n2-c2ccccc2)cc1")
"F"
>>> assigned_label("O=[N+]([O-])c1ccc(-c2nnc(SCc3ccc(O)c4ncccc34)n2-c2ccccc2)cc1")
"F"
>>> assigned_label("COc1ccc(NC(=O)Cn2cc(CN3C(=O)c4ccc([N+](=O)[O-])cc4C3=O)nn2)cc1")
"T"
>>> assigned_label("N#C/C(=C\\c1ccc(Cl)cc1Cl)C(N)=O")
"T"
>>> assigned_label("Cn1nc(Nc2ccccc2)c(C(=O)NN)c1N")
"T"
>>> assigned_label("CC1COc2c(N3CCN(C)CC3)c(F)cc3c(=O)c(C(=O)N/N=C/c4cc[nH]c4)cn1c23 (stereo not given)")
"F"
>>> assigned_label("Cc1ccc(-n2cc(/C=C/C(=O)c3ccc(S(C)(=O)=O)cc3)c(-c3ccc(S(C)(=O)=O)cc3)n2)cc1")
"T"
>>> assigned_label("Fc1ccc(-c2cc3nc(C(Cl)Cl)nc(-c4cccs4)n3n2)cc1")
"F"

Incoming: Quick check: does O=C1CSC(=O)N1Cc1cc2ccccc2nc1Cl have growth greater than or equal to 90%?
Outgoing: T

---

test system: SR leukemia; experiment: NCI-60 one-dose screen, 48 h (100 = growth as untreated, 0 = no growth, -100 = all killed); settings: 10 µM unless noted
Compounds without any hit were thinned out: in the full panel of roughly 83,000, 20% have a hit.
Binary classification by growth, with 50% as an inclusive lower bound for fulfilled; all other cases are not fulfilled.

Use these answered entries as a reference point.
>>> assigned_label("CCNC(=O)Oc1ccc(/C(=C(/C)c2ccc(Cl)cc2)c2ccc(OCCN3CCCC3)cc2)cc1")
"not fulfilled"
>>> assigned_label("CC1(COc2ccc3ncc(C#Cc4cncc(C(=O)Nc5cc(C(C)(C)C)on5)c4)n3n2)COC1")
"not fulfilled"
>>> assigned_label("CCOC(=O)C1=C(C)N=C2Sc3ccccc3N2C1c1ccccc1 (centres undefined)")
"fulfilled"
>>> assigned_label("O=C(N/N=C\\c1ccc(Cl)cc1)c1ccc2nc(-c3ccc(Br)cc3)[nH]c2c1")
"not fulfilled"
>>> assigned_label("O=S(=O)(Nc1cc(Cl)cc(Cl)c1)c1ccc(-c2cnc(C3CC3)o2)cc1")
"not fulfilled"

Incoming: Quick check: does COc1ccc(Cn2cc3c(c2-c2ccccc2)CCCc2cnoc2-3)cc1[N+](=O)[O-] have growth greater than or equal to 50%?
Outgoing: not fulfilled

Incoming: Quick check: does COc1ccc(-c2cc(-c3ccc(Cl)cc3)nc3nc(N)nn23)cc1 have growth greater than or equal to 50%?
Outgoing: fulfilled

Incoming: Quick check: does O=S(=O)(Nc1ccc(I)c(Cl)c1)c1ccc(-c2cnc(C3CC3)o2)cc1 have growth greater than or equal to 50%?
Outgoing: not fulfilled

Incoming: Quick check: does O=S(=O)(Nc1ccc(C2CC2)cc1)c1ccc(-c2cnc(C3CC3)o2)cc1 have growth greater than or equal to 50%?
Outgoing: not fulfilled

Incoming: Quick check: does O=c1oc2ccc(-c3ccc(F)cc3F)cc2c(=O)n1-c1cccc(C(F)(F)F)c1 have growth greater than or equal to 50%?
Outgoing: not fulfilled

Incoming: Quick check: does COc1cc(-c2nc(SCc3ccc(C)cc3)[nH]c(=O)c2C#N)ccc1OCc1ccccc1 have growth greater than or equal to 50%?
Outgoing: fulfilled

Incoming: Quick check: does CC(=O)c1ccc(NC(=O)COc2ccc(C3SCC(=O)N3c3ccc(Br)cc3)cc2)cc1 (centres undefined) have growth greater than or equal to 50%?
Outgoing: fulfilled

Incoming: Quick check: does CCCCCCCCNC(=O)c1ccc(Cn2c(CCCC)nc3c(N)nc4ccccc4c32)cc1 have growth greater than or equal to 50%?
Outgoing: not fulfilled

Incoming: Quick check: does Cc1ccc(Nc2ncnc3c2c(C)nn3-c2ccc([N+](=O)[O-])cc2)cc1 have growth greater than or equal to 50%?
Outgoing: fulfilled

Incoming: Quick check: does Cn1cc2c(c1)-c1c(sc3nc(-c4ccc(NC(=O)Nc5cc(C(C)(C)C)on5)cc4)cn13)CC2 have growth greater than or equal to 50%?
Outgoing: not fulfilled

Incoming: Quick check: does C/C(=N/Nc1nc(N/N=C(/C)c2ccc([N+](=O)[O-])cc2)nc(N2CCOCC2)n1)c1ccc([N+](=O)[O-])cc1 have growth greater than or equal to 50%?
Outgoing: fulfilled

Incoming: Quick check: does Oc1ccc(CSc2nnc(-c3ccncc3)n2-c2ccccc2)c2cccnc12 have growth greater than or equal to 50%?
Outgoing: not fulfilled

---

tested on: M14 melanoma; assay: NCI-60 one-dose screen, 48 h (100 = growth as untreated, 0 = no growth, -100 = all killed); details: 10 µM unless noted
Compounds without any hit were thinned out: in the full panel of roughly 83,000, 20% have a hit.
assay.endpoint: growth (%)
Number only, in %; omit the unit.

>>> test_result("Cc1ccc(-c2csc(N/N=C/c3nc4ccccc4n3C3CC3)n2)cc1")
89
>>> test_result("O=C(CSc1nnc(-c2cccs2)n1-c1ccccc1)Nc1ccc(F)cc1")
99.2
>>> test_result("CCC(=O)Nc1cc(Nc2cc(NC3CC3)n3ncc(C#N)c3n2)ccc1C")
14.9
>>> test_result("CCN1C/C(=N\\S(=O)(=O)c2ccccc2)N(CC)C1=S")
99
>>> test_result("Cc1nn(-c2ccc(Br)cc2)c2nc(CCl)[nH]c(=O)c12")
101

Incoming: Please look up its growth: COc1ccc([C@H]2[C@H](O)C(=O)N2c2cc(OC)c(OC)c(OC)c2)cc1Cl
Outgoing: 10.3

Incoming: Please look up its growth: O=c1c2ccccc2nc(COc2ccccc2)n1/N=C/C=C/c1ccccc1
Outgoing: 97.8

Incoming: Please look up its growth: CC1CCc2c(sc3nc(SCC(=O)N/N=C/c4cccc(O)c4O)n(-c4ccccc4)c(=O)c23)C1 (stereo not given)
Outgoing: 84.4

Incoming: Please look up its growth: C=C1C(=O)O[C@@H]2C[C@@H](C)CCC(=O)[C@](C)(OC(C)=O)C[C@H](OC(=O)/C(C)=C\C)[C@@H]12
Outgoing: 82.4

Incoming: Please look up its growth: CN(C)CCn1c2ccc(N)cc2c2nc3ccccc3nc21
Outgoing: 35.9
